Test system: SK-MEL-28 melanoma
Experimental protocol: NCI-60 one-dose screen, 48 h
Run conditions: 10 µM unless noted
Compounds without any hit were thinned out: in the full panel of roughly 83,000, 20% have a hit. Activity calls are given as the source filed them. Rule for the calls: active = growth percent below 10; inactive = the rest.
API: response.call in active, inactive

Q: # outcome recorded in this test, key = COc1ccc(C(=O)Cn2c(C(=O)c3ccc(OC)cc3)nc3ccccc32)cc1
A: inactive

Q: Param item: CCN(CC)c1ccc(/C=N/NC(=O)Cc2ccc(Nc3ccnc(C(F)(F)F)c3)cc2)c(O)c1
A: inactive

Q: Param item: CN1CCN(CC(=O)Nc2ccc3ncnc(Nc4ccc(Oc5cccc(C(F)(F)F)c5)c(Cl)c4)c3c2)CC1
A: active

Q: Param item: COc1cc2nc3sc(C(=O)Nc4ccc(C(=O)OC(C)C)cc4)c(C(=O)Nc4ccc(Cl)cc4C)n3c(=O)c2cc1OC
A: inactive

Q: Param item: CSC1=Nc2c(c(C)c(-c3ccccc3)n2CCCC(=O)O)C2=NC(=O)C[C@H](C)N12
A: inactive

Q: Param item: Cc1ccc(NC(=O)Cn2c(Br)nc3c2c(=O)n(C)c(=O)n3C)cc1
A: inactive

Q: Param item: COc1ccccc1C(=O)Nc1cccc(NC(=O)c2ccoc2C)c1
A: inactive

====

Tested on: UACC-62 melanoma
Experimental protocol: NCI-60 one-dose screen, 48 h
Run conditions: 10 µM unless noted
Compounds without any hit were thinned out: in the full panel of roughly 83,000, 20% have a hit. Active and inactive are the calls of the source. How the source made its calls: active means growth percent below 10; inactive means the rest.
API: response.call in active, inactive

Compound	Class assignment
COc1ccc(-c2nc(/C=C3\C(=O)N(C)c4ccccc43)c3ccccn23)cc1	inactive
COc1cc2c(c(OC)c1OC)C(=O)CC(c1cccc(NC(=O)c3ccc(C#N)cc3)c1)O2 (stereo not given)	inactive
NC1(CO)COC(c2ccccc2)OC1 (stereo not given)	inactive

Q: # outcome recorded in this test, key = COc1ccc(/C=C2\CN(C(=O)C(Cl)Cl)C/C(=C\c3ccc(OC)cc3)C2=O)cc1
A: active

Q: Param item: COc1cnc2c(c1)C(=O)c1c-2n(CCCCl)c(=O)c2ccncc12
A: inactive

====

Below: a set of entries, each annotated with reported growth.
Test system: TK-10 renal
Experimental protocol: NCI-60 one-dose screen, 48 h (100 = growth as untreated, 0 = no growth, -100 = all killed)
Run conditions: 10 µM unless noted
Compounds without any hit were thinned out: in the full panel of roughly 83,000, 20% have a hit.
Value expressed in %; do not type the unit.

Compound	growth (%)
c1ccc(CCNc2c3ccccc3nc3ccccc23)cc1	53.2
O=S(=O)(Oc1ccc(Br)cc1)c1ccc(Cl)cc1	84.1
Clc1c(Cl)[n+](Cc2ccc3ccccc3c2)cn1Cc1ccc2ccccc2c1	-63

Q: Item under review: O=c1cc(-c2ccccc2)[nH]c2ncc(-c3ccc(F)cc3)n12 . Reported growth?
A: 105

Q: Param item: N#Cc1cccc(C2C3=C(COC3=O)N(CCO)c3cc4c(cc32)CCC4)c1 (stereo not given)
A: 54.2

Q: Param item: CCOC(=O)C1=C(C)C(Cl)=N/C1=C\c1[nH]c(Cl)c(C)c1C(=O)OCC
A: 109

Q: Param item: Cc1cc2c(cc1C)N(C(=O)CCl)CC(=O)N2
A: 44.5

Q: Param item: O=C1Nc2ccccc2/C1=C/c1cccn1C(=O)c1ccc(Cl)s1
A: 50.6

Q: Param item: COc1ccc2c(c1)/C(=N/c1n[nH]c(=S)s1)C(=O)N2
A: 115

Q: Param item: COC(=O)c1c2c(c(C)[n+]([O-])c1C)C(=O)C(NCc1cccc(Cl)c1)=CC2=O
A: 73.5

Q: Param item: Nc1ccc(-c2csc(-n3[nH]c(=O)ccc3=O)n2)cc1
A: 120

====

System: MCF7 breast
Experimental protocol: NCI-60 one-dose screen, 48 h (100 = growth as untreated, 0 = no growth, -100 = all killed)
Run conditions: 10 µM unless noted
This is part of a sample that, as a whole, favours compounds with a hit. Of some 83,000 tested, about 20% had one in any assay.
Criterion: growth strictly less than 40%. Met: class 1. Not met: class 0.

Look over these answered cases.
Compound	System under test	Class assignment
CC1CCN(C(=O)CCCl)c2ccccc21 (stereo unspecified)	MCF7 breast	class 0
CCCCCCCCCCCCCCCCCC1=NC(C)(C)CN1CC(C)O (stereo unspecified)	MCF7 breast	class 0
O=C(Cn1nnc2ccccc21)N/N=C/c1c[nH]c2ccccc12	MCF7 breast	class 1
O=C(CCl)NNc1nccc(Nc2ccc(S(=O)(=O)Nc3ccncc3)cc2)n1	MCF7 breast	class 1
Cc1ccc(-c2nc(/C=C3/C(=O)Nc4ccc(F)cc43)c3ccccn23)cc1	MCF7 breast	class 1

Please find the next compound below.
Q: Hi there! Is growth for O=C1/C(=C/c2ccc(O)c(O)c2)COc2ccc(-c3ccccc3)cc21 below 40%, do you know?
A: class 1

====

Tested on: OVCAR-8 ovarian
Experimental protocol: NCI-60 one-dose screen, 48 h (100 = growth as untreated, 0 = no growth, -100 = all killed)
Run conditions: 10 µM unless noted
About 83,000 compounds went through this panel and 20% of them were active in at least one assay; those are over-represented in the sample as a whole.
# if value of growth reaches 70%, tag Condition met; if it stays below, tag Condition not met

Look over these answered cases.
Compound	Class assignment
O=C1/C(=C/c2ccccc2F)CN(C(=O)C(Cl)Cl)C/C1=C\c1ccccc1F	Condition not met
Clc1ccccc1-c1cnn2cc(-c3ccccc3)cnc12	Condition met
C=C1C(=O)O[C@H]2[C@H]1CC/C(COC(=O)/C=C\C(=O)NCc1ccc(Cn3c(=O)sn(CCCCC)c3=O)cc1)=C\CC[C@@]1(C)O[C@@H]21	Condition met
Cc1ccnc(Nc2ccc([N+](=O)[O-])c(NCCN3CCOCC3)n2)c1	Condition not met
COC(=O)c1nc(-c2ccccc2)oc1S(=O)(=O)NCC(c1ccc(Cl)cc1)N1CCOCC1 (centres undefined)	Condition not met

Please find the next compound below.
Q: Textbook exercise: given the entry N#Cc1c(-c2ccccc2)nc(SCC(O)CN2CCOCC2)nc1N1CCOCC1 (centres undefined) , state whether its growth is greater than or equal to 70%.
A: Condition not met

====

Tested on: BT-549 breast
Experimental protocol: NCI-60 one-dose screen, 48 h
Run conditions: 10 µM unless noted
Compounds without any hit were thinned out: in the full panel of roughly 83,000, 20% have a hit. Calls of active or inactive are those of the source. The calls were made as follows: active = growth percent below 10; inactive = the rest.
API: response.call in active, inactive

Look over these answered cases.
Molecule	Class assignment
COCCn1cc(-c2csc(-c3c[nH]c4ccc(Br)cc34)n2)c2cccnc21	inactive
O=C(O)COc1ccc(Cl)c(Cl)c1	inactive
CC(C)N1C(=O)/C(=c2\sc3n(c2=O)C2C(NN=3)N(C)C(=O)N2C)c2ccccc21 (stereo unspecified)	inactive
Nc1ccc(-c2csc(-n3[nH]c(=O)ccc3=O)n2)cc1	inactive
Cn1cc(-c2csc(-c3c[nH]c4ccc(F)cc34)n2)c2ccnc(Cl)c21	inactive

Q: # outcome recorded in this test, key = CSc1nn2c(-c3ccc4ccccc4c3)ccnc2c1C#N
A: inactive

====

Tested on: HCC-2998 colon
Experimental protocol: NCI-60 one-dose screen, 48 h (100 = growth as untreated, 0 = no growth, -100 = all killed)
Run conditions: 10 µM unless noted
About 83,000 compounds went through this panel and 20% of them were active in at least one assay; those are over-represented in the sample as a whole.
Measurement name: growth (%)
Value expressed in %; do not type the unit.

Molecule	growth [%]
CCOC(=O)c1ccccc1-c1c2ccc(=[N+](C)C)cc-2oc2cc(N(C)C)ccc12	96.9
C=C1C(=O)O[C@H]2[C@H]1CC/C(Cn1cc(CCC)nn1)=C\CC[C@@]1(C)O[C@@H]21	73.6
CN(C)CCCNC(=O)c1cncnc1Nc1ccc(OCc2cccc(F)c2)c(Cl)c1	6.05
C=C(C)[C@@H]1CC[C@]2(C)[C@H](CC=C3[C@@H]4CC(C)(C)CC[C@]4(CO)CC[C@]32C)[C@@]1(C)CCCN	-76
CCN(CC)CCCOc1ccc2ncnc(Nc3ccc(Oc4cccc(C(F)(F)F)c4)c(Cl)c3)c2c1	-85.4
Cn1cc(-c2ccc(-c3cn(C)c4ccc(Cl)cc34)[nH]2)c2cc(Cl)ccc21	-72.2
Oc1c(CN2CCC(N3CCCCC3)CC2)cc(Cc2cc(CN3CCC(N4CCCCC4)CC3)c(O)c3ncccc23)c2cccnc12	32.9
Cc1n[nH]c2ccc(Br)cc2c1=O	107

Okay, now this molecule:
Q: Test system HCC-2998 colon; read-out growth; what value for C=C1C(=O)O[C@H]2[C@H]1CC/C(COC(=O)/C=C/C(=O)OC/C1=C/CC[C@@]3(C)O[C@H]3[C@H]3OC(=O)C(=C)[C@@H]3CC1)=C\CC[C@@]1(C)O[C@@H]21 ?
A: 106

====

System: MALME-3M melanoma
Experimental protocol: NCI-60 one-dose screen, 48 h (100 = growth as untreated, 0 = no growth, -100 = all killed)
Run conditions: 10 µM unless noted
Method: Cells are grown in 96 well plates and exposed to the test compound for 48 hours. Compounds are tested at a single concentration, which is 10^-5 M for most compounds. The reported endpoint is percent growth (GI% or GIPRCNT), where numbers from 0 - 100% represent growth inhibition, and numbers from -100% - 0 represent cell death. For example, a value of 40 represents 60% growth inhibition. A value of 0 means no net growth occurred over the course of the experiment. […]
Compounds without any hit were thinned out: in the full panel of roughly 83,000, 20% have a hit.
Measurement name: growth (%)
Value expressed in %; do not type the unit.

# example entries with known answers
Compound	Unit of measurement	Value observed
C/C(=N\O)c1ccc(NC(=O)CSc2nnc(-c3cc(-c4ccc(S(N)(=O)=O)cc4)nc4ccccc34)n2-c2ccccc2)cc1	%	80
N#C/C(=C\c1ccc([N+](=O)[O-])cc1)n1nnc2cc(F)c(F)cc21	%	33.1

Q: Item under review: CS(=O)(=O)Nc1cc(-c2ccc3ncc(C#N)c(Nc4ccc(F)c(Cl)c4)c3c2)cnc1Cl . Reported growth?
A: -38.6

Q: Param item: O=C1c2ccccc2C(=O)c2c1cc1c(c2[N+](=O)[O-])OCO1
A: 85

Q: Param item: Clc1c(Cl)[n+](Cc2ccc3ccccc3c2)cn1Cc1ccc2ccccc2c1
A: -14.1

Q: Param item: O=C(CSc1nc(-c2ccccc2)cc(=O)[nH]1)Nc1nc(-c2ccccc2)cs1
A: 110

Q: Param item: COc1ccc(Nc2ncccc2/C=C/C(=O)c2cc(OC)c(OC)c(OC)c2)cc1
A: -5.45

Q: Param item: COc1ccc(-c2ccc(-c3ccc(C(=N)N)nc3)s2)cc1Cl
A: 74.1

Q: Param item: CO[C@H](C(=O)[C@@H](O)[C@@H](C)O)[C@@H]1Cc2cc3cc(O[C@H]4C[C@@H](O[C@H]5C[C@@H](O)[C@H](O)C(C)O5)[C@H](O)C(C)(O)O4)cc(O)c3c(O)c2C(=O)[C@H]1O[C@H]1C[C@@H](O[C@H]2C[C@@H](O[C@H]3C[C@@H](OC)[C@H](O)C(C)O3)[C@@H](O)C(C)O2)[C@H](O)C(C)O1 (stereo partly drawn)
A: -11.4

Q: Param item: COc1ccc(/C=C/C(c2cc(OC)c(OC)c(OC)c2)n2cncn2)cc1 (stereo not drawn)
A: 61.3

Q: Param item: NNCCc1ccc(NC(=O)CCCc2ccc(C(=O)Nc3ccccc3N)cc2)cc1
A: 56.9

Q: Param item: O=C(Oc1ccc(CCl)cc1)c1ccccc1
A: -69.3

Q: Param item: O=C(Nc1ncc(Cc2cc(C(F)(F)F)ccc2Cl)s1)c1cccs1
A: 50.7

Q: Param item: C[C@]1(O)CC(=O)[C@]2(O)C3=C(C=C[C@]2(O)C1)C(=O)c1c(O)cccc1C3=O
A: -96.7

Q: Param item: COc1cc(-c2nc3cc(Cl)c(Cl)cc3[nH]2)ccc1OCC(=O)N=Nc1c(O)[nH]c2ccc(Cl)cc12
A: -16.4
